Tested on: MDA-MB-435
Experiment: NCI tumour cell line growth inhibition, 48 h
PARAMETER: TGI

Entry under review: ClCCCSSCCCCl . Reported TGI?
> 60.5 µM

Can you look up the measured TGI of Cn1c(-c2ccc(-c3cc(-c4cccs4)c(-c4cccs4)n3C)cc2)cc(-c2cccs2)c1-c1cccs1 for me?
> 100 µM

# get_value(readout='TGI', item= Cn1cc(C2=C(c3c4n(c5ccccc35)CCNC4)C(=O)NC2=O)c2ccccc21 )
> 17.1 µM

Data request, read-out TGI, for COc1ccc(-c2coc3cc(O)ccc3c2=O)cc1
> 100 µM

###

System: SK-MEL-28 melanoma
Test: NCI tumour cell line growth inhibition, 48 h
Where a SMILES comes first, the peptide text is derived from it. The star is where a group is joined. Boc = CC(C)(C)OC(=O)*
PARAMETER: TGI

Lookup: TGI / SK-MEL-28 melanoma / COc1cc(C2c3cc4c(cc3OC(NNc3ccccc3)C2C)OCO4)cc(OC)c1OC (stereo not drawn)
> 100 µM

Given the entry COC(=O)[C@H]1COC(=S)N1C(=O)[C@@H](C)[C@H](O)C(C)C , what TGI was observed with SK-MEL-28 melanoma?
> 100 µM

Can you look up TGI on SK-MEL-28 melanoma for COC1OCC(O)C(NC(=O)N(C)N=O)C1O (stereo not drawn) ?
> 100 µM

Give SK-MEL-28 melanoma TGI for Cn1c(-c2ccc(-c3cc(-c4cccs4)c(-c4cccs4)n3C)cc2)cc(-c2cccs2)c1-c1cccs1
> 100 µM

Item: COc1ccc2nc3c([N+](=O)[O-])ccc(NCCN(C)C)c3c(N)c2c1 Test system: SK-MEL-28 melanoma Read-out: TGI Value: ?
4.16 µM

Reported TGI for SK-MEL-28 melanoma, given O=C(C=Nc1ccccc1C(=O)[O-])c1cccs1.O=C(C=Nc1ccccc1C(=O)[O-])c1cccs1.[Ni+2] ?
> 100 µM

Notebook entry, SK-MEL-28 melanoma assay: TGI of CCOC(=O)c1[nH]cc(C)c1-c1cccn1-c1ccc(Cl)cc1[N+](=O)[O-] = ?
55.7 µM

# get_value(readout= TGI, system= SK-MEL-28 melanoma) for CC1=C/C=C/C(=O)O[C@@H]([C@H](C)[C@H](O)[C@@H](C)NC(=O)C(C)C)[C@H](C)/C=C/C(C)=C/[C@H]2C=CCC[C@@]2(C)\C=C\1
8.48 µM

Recorded TGI for O=c1[nH]c2ccccc2c(O)c1Cc1ccccc1 with SK-MEL-28 melanoma, please?
> 100 µM

Short answer please: TGI, SK-MEL-28 melanoma, entry N#CCCN(CCC#N)c1ccc(/C=C(/NC(=O)c2cc([N+](=O)[O-])ccc2Cl)C(=O)NN)cc1
> 100 µM

Notebook: pull reported TGI for SK-MEL-28 melanoma, entry N#Cc1c(N)oc(-c2ccc([N+](=O)[O-])cc2)c1C#N
> 100 µM

Find the measured TGI: item CC(=O)O[C@H]1C(=O)[C@@]2(C)[C@H]([C@H](OC(=O)c3ccccc3)[C@]3(O)C[C@H](OC(=O)[C@H](O)[C@@H](NC(=O)c4ccccc4)c4ccc5ccccc5c4)C(C)=C1C3(C)C)[C@]1(OC(C)=O)CO[C@@H]1C[C@@H]2O , target or system SK-MEL-28 melanoma.
> 23.1 µM

What measured TGI is associated with COC(=O)C(Cc1ccccc1)NC(=O)C(CS)NC(=O)OC(C)(C)C (stereo not drawn) (Boc-Cys-Phe-OMe; configuration not given here) on SK-MEL-28 melanoma?
> 100 µM

Give the reported TGI for COc1cccc2c1C(=O)c1c(O)c3c(c(O)c1C2=O)C[C@@](O)(C(C)=O)CC3S(=O)(=O)O (stereo partly drawn) (system: SK-MEL-28 melanoma).
> 100 µM

Which measured TGI belongs to NC(=O)c1cccc2c(N[C@H](CN3CCC3)c3ccc(Cl)c(C(F)(F)F)c3)ncnc12 , tested on SK-MEL-28 melanoma?
4.13 µM

Which TGI is reported with SK-MEL-28 melanoma for this entry: COC(=O)c1ccc2nc(-c3cc4ccccc4n3C)n(CCCCOc3cc4c(cc3OC)C(=O)N3CCC[C@H]3C=N4)c2c1 ?
2.3 µM

Lab note: need TGI with SK-MEL-28 melanoma for entry OCc1ccc(-c2csc(-c3ccc(CO)o3)c2)o1 , please look it up.
> 100 µM

# returns recorded TGI (system: SK-MEL-28 melanoma) for CC(c1cc(Cl)ccc1O)c1cc(Cl)ccc1O
17 µM

Missing value: TGI, SK-MEL-28 melanoma, entry O=C(CCBr)N1CCN(C(=O)CCBr)CC1 . Fill in?
252 µM

Form entry - test system: SK-MEL-28 melanoma; read-out: TGI; compound: O=C(/C=C/C12c3ccccc3C(c3ccccc31)C1C(=O)N(c3ccc(Cl)cc3)C(=O)C12)c1ccccn1 (stereo not drawn)
1.61 µM

Which measured TGI belongs to Cc1nn(C(=O)c2ccccc2O)c2c1C(c1ccc(O)cc1O)SC(N)=N2 (stereo not drawn) , tested on SK-MEL-28 melanoma?
> 10 µM

Recall the recorded TGI for CCCCCCC1N=C(N)N=C(N)N1c1cccc(Cl)c1 (stereo not drawn) with SK-MEL-28 melanoma and state it.
17.4 µM

Record lookup: for SK-MEL-28 melanoma, what TGI belongs to O=c1[nH]c(=O)c2ncn(-c3ccc([N+](=O)[O-])cn3)c2[nH]1 ?
> 100 µM

The reported measurements were obtained from PubChem BioAssay (NCI).
